# Target of assay: Hydroxycarboxylic acid receptor 2 (Rattus norvegicus)
# Sequence (Q80Z39 whole entry): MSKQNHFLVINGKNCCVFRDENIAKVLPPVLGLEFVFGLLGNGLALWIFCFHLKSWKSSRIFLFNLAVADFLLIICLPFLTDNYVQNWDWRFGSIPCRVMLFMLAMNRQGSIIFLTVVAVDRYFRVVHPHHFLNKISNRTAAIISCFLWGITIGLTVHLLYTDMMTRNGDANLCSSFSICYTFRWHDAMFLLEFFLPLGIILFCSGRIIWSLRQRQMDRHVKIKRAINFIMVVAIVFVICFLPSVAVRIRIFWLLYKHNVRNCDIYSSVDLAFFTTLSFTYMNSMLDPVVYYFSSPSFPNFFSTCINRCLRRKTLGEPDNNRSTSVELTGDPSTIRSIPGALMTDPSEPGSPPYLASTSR
# Run description: Agonist activity at rat GPR109a
Test readout: EC50 (nM)

1 = O=c1cc(CCCC2CC2)c2c(=O)[nH]c(C(F)F)nc2o1
2 = CC1(CCCc2cc(=O)oc3nc(C(F)F)[nH]c(=O)c23)CC1
Request: Between these two entries, 1 and 2 , state which has the higher EC50. Answer by quoting the chosen item's label.
Result: 2

* * *

# Run description: Agonist activity at dog GPR109a
# Assay type: functional, Canis lupus familiaris
Test readout: EC50 (nM)

a = CC1(CCCc2cc(=O)oc3nc(C(F)F)[nH]c(=O)c23)CC1
b = O=c1cc(CCCC2CC2)c2c(=O)[nH]c(C(F)F)nc2o1
Request: Between these two entries, a and b , state which has the higher EC50. Answer by quoting the chosen item's label.
Result: a

* * *

# Target of assay: Cytochrome P450 2D6 (Homo sapiens)
# Sequence (P10635 whole entry): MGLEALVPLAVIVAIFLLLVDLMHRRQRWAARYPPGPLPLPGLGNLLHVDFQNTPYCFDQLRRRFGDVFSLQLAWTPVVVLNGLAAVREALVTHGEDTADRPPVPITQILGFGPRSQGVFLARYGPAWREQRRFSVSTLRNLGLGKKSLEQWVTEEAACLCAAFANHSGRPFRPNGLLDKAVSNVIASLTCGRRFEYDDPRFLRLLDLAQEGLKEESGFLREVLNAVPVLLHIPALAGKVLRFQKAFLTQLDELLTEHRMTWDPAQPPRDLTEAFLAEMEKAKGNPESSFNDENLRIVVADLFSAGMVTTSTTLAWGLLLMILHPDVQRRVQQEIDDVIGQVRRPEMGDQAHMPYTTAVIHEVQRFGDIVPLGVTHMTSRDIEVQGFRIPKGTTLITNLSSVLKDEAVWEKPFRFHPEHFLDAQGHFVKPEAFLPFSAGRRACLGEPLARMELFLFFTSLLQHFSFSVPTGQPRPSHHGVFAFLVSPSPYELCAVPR
pIC50: −log10 of the molar value.
Test readout: pIC50

Request: Need pIC50 of O=c1cc(CCCC2CC2)c2c(=O)[nH]c(C(F)F)nc2o1 , thanks.
Result: < 4.30

* * *

# Target of assay: Hydroxycarboxylic acid receptor 3 (Homo sapiens, UniProt P49019)
# Sequence (P49019 whole entry): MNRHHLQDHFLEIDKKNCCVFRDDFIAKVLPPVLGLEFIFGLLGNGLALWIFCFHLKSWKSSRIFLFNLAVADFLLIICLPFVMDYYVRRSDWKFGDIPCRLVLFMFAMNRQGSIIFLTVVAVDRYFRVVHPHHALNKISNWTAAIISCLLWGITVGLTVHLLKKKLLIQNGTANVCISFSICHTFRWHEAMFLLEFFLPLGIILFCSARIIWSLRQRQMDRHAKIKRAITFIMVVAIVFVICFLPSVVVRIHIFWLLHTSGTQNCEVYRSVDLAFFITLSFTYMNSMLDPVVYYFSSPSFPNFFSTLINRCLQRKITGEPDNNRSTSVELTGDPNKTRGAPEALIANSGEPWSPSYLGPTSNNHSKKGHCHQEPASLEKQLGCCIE
# Run description: Agonist activity at human GPR109b
pEC50: −log10 of the molar value.
Test readout: pEC50

a = CC1(CCCc2cc(=O)oc3nc(C(F)F)[nH]c(=O)c23)CC1
b = O=c1cc(CCCC2CC2)c2c(=O)[nH]c(C(F)F)nc2o1
Request: Between these two entries, a and b , state which has the higher pEC50. Answer by quoting the chosen item's label.
Result: b
